# assay.procedure: total protein half-life in vivo (active degradation + dilution); higher = more stable protein
# condition.summary: wild type E. coli NCM3722; growth: N-lim chemostat; doubling time 12 h
observable: total protein half-life in vivo (h)
API: value field is a number in h; no unit string.

Observe how each entry below is paired with its result.
{"record.sequence": "MARINRISITLCALLFTTLPLTPMAHASKQARESSATTHITKKADKKKSTATTKKTQKTAKKAASKSTTKSKTASSVKKSSITASKNAKTRSKHAVNKTASASFTEKCTKRKGYKSHCVKVKNAASGTLADAHKAKVQKATKVAMNKLMQQIGKPYRWGGSSPRTGFDCSGLVYYAYKDLVKIRIPRTANEMYHLRDAAPIERSELKNGDLVFFRTQGRGTADHVGVYVGNGKFIQSPRTGQEIQITSLSEDYWQRHYVGARRVMTPKTLR", "observable": "total protein half-life in vivo", "unit.text": "h", "number": 6.47}
{"record.sequence": "MTITDLVLILFIAALLAFAIYDQFIMPRRNGPTLLAIPLLRRGRIDSVIFVGLIVILIYNNVTNHGALITTWLLSALALMGFYIFWIRVPKIIFKQKGFFFANVWIEYSRIKAMNLSEDGVLVMQLEQRRLLIRVRNIDDLEKIYKLLVSTQ", "observable": "total protein half-life in vivo", "unit.text": "h", "number": 8.94}

Shift focus to the following entry.
Measured total protein half-life in vivo, MKYQLTALEARVIGCLLEKQVTTPEQYPLSVNGVVTACNQKTNREPVMNLSESEVQEQLDNLVKRHYLRTVSGFGNRVTKYEQRFCNSEFGDLKLSAAEVALITTLLLRGAQTPGELRSRAARMYEFSDMAEVESTLEQLANREDGPFVVRLAREPGKRENRYMHLFSGEVEDQPAVTDMSNAVDGDLQARVEALEIEVAELKQRLDSLLAHLGD : 10.6
